B1: library; a variant is named by its letters at N, in order (parent)
chain: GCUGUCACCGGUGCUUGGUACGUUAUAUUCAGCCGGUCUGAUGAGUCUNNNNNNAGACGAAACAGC

Variants of: B1
Assay: normalized RNA/DNA level without ligand (relative to sTRSVctl = 100) (log10 (% of sTRSVctl)); HEK293T overexpressing SLC46A1; higher = less ribozyme self-cleavage, higher mRNA level
Details: without (6R,S)-folinic acid; ligand present: no
property name: normalized RNA/DNA level without ligand (log10)
Could you respond with only the numeric value?

Given CCCAGA , state its recorded normalized RNA/DNA level without ligand (log10). 2.05

Requested read-out: normalized RNA/DNA level without ligand (log10). Entry: GCAACU 2.06

Name the reported normalized RNA/DNA level without ligand (log10) value associated with the variant UCACCA 2.01

What normalized RNA/DNA level without ligand (log10) value was documented for this variant, GUCUAC ? 2

Name the recorded normalized RNA/DNA level without ligand (log10) for GAGAAA . 1.96

Field request: normalized RNA/DNA level without ligand (log10) | item: CGUCGA 2.01

Sample GUCCCU — what was its normalized RNA/DNA level without ligand (log10)? 2.05

Item GCAAGG has what recorded normalized RNA/DNA level without ligand (log10)? 1.96

Any idea what its normalized RNA/DNA level without ligand (log10) is? The variant is UAGAGC 1.93

Quick one: normalized RNA/DNA level without ligand (log10) of CAAGUC ? 2.04

Quick check: normalized RNA/DNA level without ligand (log10) of GGGCUG ? 2.04

Item CACUAU has what recorded normalized RNA/DNA level without ligand (log10)? 1.96

Would you kindly share the measured normalized RNA/DNA level without ligand (log10) for UCGGCC ? 2.1

So what's the measured normalized RNA/DNA level without ligand (log10) for this one? AUUCAU 2

Which normalized RNA/DNA level without ligand (log10) is reported for this variant? CGUGCG 1.97

Endpoint output: normalized RNA/DNA level without ligand (log10) of CGAACA . Value? 1.98

Would you kindly share the measured normalized RNA/DNA level without ligand (log10) for CGCGGA ? 2.05

If you can, please state the reported normalized RNA/DNA level without ligand (log10) value of AAGUCU . 2.07

// normalized RNA/DNA level without ligand (log10) lookup, key: AGGAAU 1.99

I have this variant here, GCAUUG , and I need its recorded normalized RNA/DNA level without ligand (log10). 1.95

# get_value(readout='normalized RNA/DNA level without ligand (log10)', item= UAGGUC ) 2.05

Fill in: normalized RNA/DNA level without ligand (log10) of CGGGAC is ___ 2.01
